Target: EP2 (Homo sapiens (Human), UniProt P43116);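 also: antagonism of PGE2-stimulated cAMP accumulation in SF295 human glioblastoma cells with endogenous EP2, cAMP read by HTRF, expressed relative to DMSO control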
Sequence (P43116 whole entry): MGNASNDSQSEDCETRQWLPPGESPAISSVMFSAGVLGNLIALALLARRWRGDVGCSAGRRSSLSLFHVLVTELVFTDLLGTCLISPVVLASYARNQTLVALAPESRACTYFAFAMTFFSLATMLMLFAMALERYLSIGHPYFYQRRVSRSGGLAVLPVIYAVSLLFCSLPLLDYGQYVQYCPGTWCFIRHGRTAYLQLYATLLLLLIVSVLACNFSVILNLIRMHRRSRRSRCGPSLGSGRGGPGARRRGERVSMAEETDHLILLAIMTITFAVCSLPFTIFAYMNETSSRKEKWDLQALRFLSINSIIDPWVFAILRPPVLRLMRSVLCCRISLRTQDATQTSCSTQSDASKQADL
pIC50: −log10 of the molar value.
Quick rule: pIC50 of at least 8 means T, below that means F.

// query Identify whether the reported pIC50 of the following compound is 8 or greater: `Cc1cc2c(Cl)cc(Cl)cc2n1CCNc1cc(-c2ccc(C(=O)O)c(CC(C)C)c2)ncn1`
// result F

----------
Target: EP4 (Homo sapiens (Human))
Sequence (P35408 whole entry): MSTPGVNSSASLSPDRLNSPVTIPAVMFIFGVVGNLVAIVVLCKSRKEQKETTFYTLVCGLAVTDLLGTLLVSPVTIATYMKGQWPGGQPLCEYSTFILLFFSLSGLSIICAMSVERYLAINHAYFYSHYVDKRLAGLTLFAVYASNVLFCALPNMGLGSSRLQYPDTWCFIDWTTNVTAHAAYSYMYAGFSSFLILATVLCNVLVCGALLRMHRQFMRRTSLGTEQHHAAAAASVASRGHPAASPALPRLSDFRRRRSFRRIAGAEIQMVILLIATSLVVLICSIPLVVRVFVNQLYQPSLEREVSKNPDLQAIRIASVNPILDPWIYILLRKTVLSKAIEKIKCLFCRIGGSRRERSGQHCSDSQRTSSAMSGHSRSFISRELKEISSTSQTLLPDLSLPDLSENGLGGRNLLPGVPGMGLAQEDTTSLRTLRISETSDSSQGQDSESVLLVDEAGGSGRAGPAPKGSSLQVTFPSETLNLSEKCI
Assay: hEP4 cAMP assay (BT549 breast cancer cells, HTRF cAMP)
Assay type: cell-based
Conditions: antagonistic activity; mean values where measured multiple times
READOUT TYPE: IC50 (nM)
Report only the number, with the unit nM understood.

Cc1cc2c(Cl)cc(Cl)cc2n1CCNc1cc(-c2ccc(-c3csc(C(=O)O)n3)cc2)ncn1 [compound 550] = 573
CCNc1cc(-c2cc(NCCn3c(C)cc4c(OC)ccc(F)c43)ncn2)ccc1C(=O)O [compound 397] = 20
CCCc1cc(-c2cc(NCCn3c(C)cc4c(OC)ccc(Cl)c43)ncn2)cc(OCC)c1C(=O)O [compound 633] = 750
COc1cc(F)cc2c1cc(C)n2CCNc1cc(-c2ccc(C(=O)O)c(OC(F)F)c2)ncn1 [compound 630] = 142
COc1cc(F)cc2c1cc(C)n2CCNc1cc(-c2cc(OC(C)C)c(C(=O)O)s2)ncn1 [compound 676] = 9

// query What value of IC50 has been reported for the following molecule? COc1ccc(F)c2c1cc(C)n2CCNc1cc(-c2ccc(C(=O)O)c(CC(C)C)c2)nc(C)n1 [compound 625]
// result 70

// query What about this molecule? COc1ccc(F)c2c1cc(C)n2CCNc1cc(-c2ccc(C(=O)O)c(N3CCCC3)c2)ncn1 [compound 478]
// result 665

// query What about this molecule? COc1cc(-c2cc(NCCn3c(C)cc4c(OC)ccc(F)c43)ncn2)cc(C)c1C(=O)O [compound 406]
// result 266

// query What about this molecule? CCOc1cc(-c2cc(NCCn3c(C)cc4c(OC)ccc(F)c43)ncn2)ccc1CNCC(C)C [compound 586]
// result 865

// query What about this molecule? COc1ccc(F)c2c1cc(C)n2CCNc1cc(-c2ccc(C(=O)NCCN(C)C)cc2)ncn1 [compound 549]
// result 865

// query What about this molecule? COc1ccc(F)c2c1cc(C)n2CCNc1cc(-c2ccc(S(N)(=O)=O)c(C(F)(F)F)c2)ncn1 [compound 567]
// result 89

----------
Catalogue of molecules with associated log10 IC50
Target: PTRGER4 (EP4) (Homo sapiens (Human), UniProt P35408)
Sequence (P35408 whole entry, looked up): as the sequence (P35408 whole entry) above
Assay: hEP4 b-arrestin assay (PathHunter HEK 293 PTGER4 b-arrestin cells)
Assay type: cell-based
Details: hEP4 b-arrestin assay (values without asterisk)
Answers are given as log10 of IC50 in nM.

These solved cases illustrate the format of a correct answer.
CCOc1cc(-c2cc(NCCn3c(C#N)cc4c(OC)ccc(F)c43)ncn2)sc1C(=O)OCCN(C)C = 0.60
COc1ccc(F)c2c1cc(C#N)n2CCNc1cc(-c2ccc(-c3c[nH]c(C4CC4)n3)cc2)ncn1 = 0.48
CNc1cc(-c2cc(NCCn3c(C)cc4c(C)c(F)cc(F)c43)ncn2)ccc1C(=O)O = 1.57
CCSc1cc(-c2cc(NCCn3c(C#N)cc4c(OC)ccc(F)c43)ncn2)ccc1C(=O)O = 1.32
CCOc1cc(-c2cc(NCCn3c(C)cc4c(OC)cc(F)cc43)ncn2)ccc1NCC(=O)O = 1.74

// query What value of log10 IC50 has been reported for the following molecule? `COC(=O)N(C)c1ccc(-c2cc(NCCn3c(C#N)cc4c(OC)ccc(F)c43)ncn2)cc1`
// result 2.08

// query What about this molecule? `COc1ccc(F)c2c1cc(C)n2CCNc1cc(-c2ccc(C(=O)O)c(C#N)c2)ncn1`
// result 2.67

// query What about this molecule? `CCCSc1cc(-c2cc(NCCn3c(C#N)cc4c(OC)ccc(F)c43)ncn2)ccc1C(=O)O`
// result 0.60
